System Tested: recombinant HCV NS5B (HCV RNA-dependent RNA polymerase) (Hepatitis C virus genotype 1b)
Sequence (P26663 2420-3010 limits assumed): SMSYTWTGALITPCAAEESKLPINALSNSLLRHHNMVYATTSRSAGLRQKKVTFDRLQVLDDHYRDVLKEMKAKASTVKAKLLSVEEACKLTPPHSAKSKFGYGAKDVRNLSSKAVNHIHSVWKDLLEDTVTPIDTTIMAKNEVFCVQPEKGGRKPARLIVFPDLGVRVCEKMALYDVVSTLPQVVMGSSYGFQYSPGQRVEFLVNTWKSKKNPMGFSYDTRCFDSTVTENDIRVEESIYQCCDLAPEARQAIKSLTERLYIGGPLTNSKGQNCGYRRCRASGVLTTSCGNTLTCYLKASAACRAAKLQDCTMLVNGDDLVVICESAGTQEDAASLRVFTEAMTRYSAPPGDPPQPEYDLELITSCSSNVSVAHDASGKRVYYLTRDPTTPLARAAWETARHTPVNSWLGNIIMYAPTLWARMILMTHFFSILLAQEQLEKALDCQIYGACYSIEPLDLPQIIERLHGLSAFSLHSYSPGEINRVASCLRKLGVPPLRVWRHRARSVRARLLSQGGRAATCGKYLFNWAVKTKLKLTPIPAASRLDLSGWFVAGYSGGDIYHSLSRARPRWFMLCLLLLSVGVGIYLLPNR
Test Description: biochemical
Test Parameters: related polymerase activity (Example 27 list); read-out: IC50
IC50 overview

Molecule: C=CCN(C(=O)c1ccc(C)cc1)c1cc(-c2ccccc2)sc1C(=O)O
IC50: < 5 µM
//
Molecule: CC1CCCC(C(=O)N(c2cc(-c3ccccc3)sc2C(=O)O)C(C)C)C1 (stereo not shown)
IC50: > 20 µM
//
Molecule: Cc1ccc(C(=O)N(C)c2cc(-c3ccc(F)cc3F)sc2C(=O)O)cc1
IC50: 5 to 20 µM
//
Molecule: Cc1cc(S(=O)(=O)Nc2cc(-c3ccccc3)sc2C(=O)O)c(C)cc1Cl
IC50: 5 to 20 µM
//
Molecule: COc1ccc(C(=O)N(C)c2cc(-c3ccccc3)sc2C(=O)O)cc1OC
IC50: > 20 µM
//
Molecule: Cc1cccc(-c2cc(N(C(=O)c3ccc(Cl)cc3Cl)C(C)C)c(C(=O)O)s2)c1
IC50: < 5 µM
//
Molecule: CC(C)N(C(=O)C1CCCCCC1)c1cc(-c2ccccc2)sc1C(=O)O
IC50: < 5 µM
//
Molecule: COC(=O)c1sc(-c2ccccc2)cc1N(C(=O)c1ccc(Cl)cc1Cl)C(C)C
IC50: 5 to 20 µM
//
Molecule: Cc1ccccc1S(=O)(=O)Nc1cc(C#C[Si](C)(C)C)sc1C(=O)O
IC50: < 5 µM
//
Molecule: CC(C)N(C(=O)c1ccc(Cl)cc1O)c1cc(-c2ccccc2)sc1C(=O)O
IC50: < 5 µM
//
Molecule: O=C(O)c1sc(-c2ccccc2)cc1N(Cc1ccccc1)C(=O)c1ccc(Cl)cc1Cl
IC50: < 5 µM
//
Molecule: Cc1ccccc1S(=O)(=O)Nc1cc(-c2nccs2)sc1C(=O)O
IC50: < 5 µM
//
Molecule: O=C(O)c1sc(-c2ccccc2)cc1NS(=O)(=O)c1ccc(F)c(F)c1F
IC50: 5 to 20 µM
//
Molecule: CN(C(=O)c1sccc1Cl)c1cc(-c2ccccc2)sc1C(=O)O
IC50: 5 to 20 µM
//
Molecule: O=C(O)c1sc(-c2ccccc2)cc1NS(=O)(=O)c1c(Cl)cccc1Cl
IC50: < 5 µM
//
Molecule: Cc1cc(C)c(C(=O)N(c2cc(-c3ccccc3)sc2C(=O)O)C(C)C)c(C)c1
IC50: 5 to 20 µM
//
Molecule: CC(C)N(C(=O)c1ccc(Cl)cc1I)c1cc(-c2ccccc2)sc1C(=O)O
IC50: < 5 µM
//
Molecule: Cc1cc(C(=O)N(C)c2cc(-c3ccccc3)sc2C(=O)O)ccc1Br
IC50: < 5 µM
//
Molecule: O=C(O)c1sc(-c2ccccc2)cc1NC(=O)N1CCN(c2ccc([N+](=O)[O-])cc2)CC1
IC50: < 5 µM
//
Molecule: CN(C(=O)c1sc2ccccc2c1Cl)c1cc(-c2ccccc2)sc1C(=O)O
IC50: 5 to 20 µM
//
Molecule: COc1ccc(S(=O)(=O)Nc2cc(-c3ccccc3)sc2C(=O)O)c([N+](=O)[O-])c1
IC50: 5 to 20 µM
//
Molecule: Cc1ccc(S(=O)(=O)Nc2cc(-c3ccc(F)cc3)sc2C(=O)O)cc1
IC50: < 5 µM
//
Molecule: Cc1ccccc1S(=O)(=O)Nc1cc(C(=O)c2ccccc2)sc1C(=O)O
IC50: 5 to 20 µM
//
Molecule: Cc1ccc(C(=O)N(C)c2cc(-c3ccccc3F)sc2C(=O)O)cc1
IC50: < 5 µM
//
Molecule: CN(C(=O)CCC1CCCC1)c1cc(-c2ccccc2)sc1C(=O)O
IC50: < 5 µM
//
Molecule: Cc1ccccc1S(=O)(=O)Nc1cc(-c2ccc(F)c(Cl)c2)sc1C(=O)O
IC50: 5 to 20 µM
//
Molecule: CCOC(=O)c1c(C)oc(-c2ccc(Cl)cc2)c1S(=O)(=O)Nc1cc(-c2ccccc2)sc1C(=O)O
IC50: 5 to 20 µM
//
Molecule: CN(C(=O)c1cc(Cl)cc(Cl)c1)c1cc(-c2ccccc2)sc1C(=O)O
IC50: 5 to 20 µM
//
Molecule: Cc1ccc(C(=O)N(C)c2cc(-c3cc(F)cc(F)c3)sc2C(=O)O)cc1
IC50: < 5 µM
//
Molecule: Cc1ccc(S(=O)(=O)Nc2cc(-c3ccccc3)sc2C(=O)O)cc1
IC50: < 5 µM
//
Molecule: CC(C)N(C(=O)c1ccc(C#N)cc1)c1cc(-c2ccccc2)sc1C(=O)O
IC50: 5 to 20 µM
//
Molecule: Cc1ccc(C(=O)N(C)c2cc(-c3ccccc3C)sc2C(=O)O)cc1
IC50: < 5 µM
//
Molecule: Cc1ccc(C(=O)N(C)c2cc(-c3ccc(Cl)cc3)sc2C(=O)O)cc1
IC50: 5 to 20 µM
//
Molecule: Cc1ccccc1S(=O)(=O)Nc1cc(-c2ccc([N+](=O)[O-])cc2)sc1C(=O)O
IC50: < 5 µM
